# TARGET ENTITY: recombinant human AMPK complex 7 (containing α2β1γ1) (Homo sapiens (Human), UniProt P54646+Q9Y478)
# Sequence (P54646 whole entry): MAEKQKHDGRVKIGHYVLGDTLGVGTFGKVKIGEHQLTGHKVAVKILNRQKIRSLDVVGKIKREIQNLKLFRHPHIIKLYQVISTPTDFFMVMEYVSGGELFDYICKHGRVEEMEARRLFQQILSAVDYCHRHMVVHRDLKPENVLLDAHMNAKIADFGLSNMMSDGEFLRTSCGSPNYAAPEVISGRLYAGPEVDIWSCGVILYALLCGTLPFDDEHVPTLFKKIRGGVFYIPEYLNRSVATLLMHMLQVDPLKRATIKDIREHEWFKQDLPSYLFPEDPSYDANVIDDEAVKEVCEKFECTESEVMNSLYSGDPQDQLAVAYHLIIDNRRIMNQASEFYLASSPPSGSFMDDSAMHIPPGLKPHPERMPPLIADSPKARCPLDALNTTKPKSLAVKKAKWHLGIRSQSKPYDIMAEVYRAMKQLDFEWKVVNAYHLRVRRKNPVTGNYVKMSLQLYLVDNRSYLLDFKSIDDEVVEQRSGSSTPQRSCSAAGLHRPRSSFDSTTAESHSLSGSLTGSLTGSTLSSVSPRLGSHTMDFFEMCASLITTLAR
# Sequence (Q9Y478 whole entry): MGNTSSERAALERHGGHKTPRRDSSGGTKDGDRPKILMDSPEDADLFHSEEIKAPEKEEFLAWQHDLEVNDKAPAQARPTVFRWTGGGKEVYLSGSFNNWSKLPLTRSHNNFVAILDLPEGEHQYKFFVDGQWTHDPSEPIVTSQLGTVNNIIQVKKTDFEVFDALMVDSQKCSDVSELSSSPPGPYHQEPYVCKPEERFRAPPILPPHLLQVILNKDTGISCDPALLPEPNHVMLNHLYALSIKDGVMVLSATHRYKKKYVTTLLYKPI
# Sequence (P54619 whole entry partner): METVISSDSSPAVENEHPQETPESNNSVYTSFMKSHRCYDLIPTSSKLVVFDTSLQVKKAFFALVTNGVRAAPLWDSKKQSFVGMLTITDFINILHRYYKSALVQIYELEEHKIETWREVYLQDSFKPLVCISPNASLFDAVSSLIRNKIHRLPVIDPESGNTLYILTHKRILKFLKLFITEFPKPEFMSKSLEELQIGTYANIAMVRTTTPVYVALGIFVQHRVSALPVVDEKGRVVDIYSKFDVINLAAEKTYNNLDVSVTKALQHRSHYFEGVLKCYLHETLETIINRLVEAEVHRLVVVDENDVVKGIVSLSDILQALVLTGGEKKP
# METHOD NOTES: In vitro AMPK activation assay (AMPKSAMSF), complex 7
# Type: biochemical
# TEST PARAMETERS: recombinant human AMPK complex 7 (α2β1γ1); 10-point titration; read-out: % Maximum AMP Activation of human AMPK Complex 7
TEST READOUT: Emax (%)
State just the number; it will be interpreted in %.

Below are worked cases with known answers.
| MOLECULE | Emax (%) |
| --- | --- |
| CC(C)(O)Cc1cnn(-c2ccc(-c3ccc(-c4cc5nc(O[C@H]6CO[C@H](CO)[C@@H](O)C6)[nH]c5cc4Cl)cc3)cc2)c1 [Example 24] | 360 |
| CC(C)(O)Cc1cnn(-c2ccc(-c3ccc(-c4c(F)cc5[nH]c(O[C@H]6CO[C@H](CO)[C@@H](O)C6)nc5c4F)cc3)cc2)c1 [Example 50] | 403 |
| CNC(=O)c1ccc(-c2ccc(-c3c(F)cc4[nH]c(O[C@H]5CO[C@H](CO)[C@@H](O)C5)nc4c3F)cc2)cc1 [Example 48] | 414 |
| OC[C@H]1OC[C@H](Oc2nc3cc(-c4ccc(-c5ccc(-n6cncn6)cc5)cc4)c(Cl)cc3[nH]2)C[C@@H]1O [Example 21] | 400 |

Quickly give me recorded Emax for OC[C@H]1OC[C@H](Oc2nc3c(F)c(-c4ccc(-c5ccc(-c6ncco6)cc5)cc4)c(F)cc3[nH]2)C[C@@H]1O [Example 38]
266

Quickly give me recorded Emax for O=C1NCCC1c1ccc(-c2ccc(-c3c(F)cc4[nH]c(O[C@H]5CO[C@H](CO)[C@@H](O)C5)nc4c3F)cc2)cc1 (stereo partly shown) [Example 43]
398

Quickly give me recorded Emax for OC[C@H]1OC[C@H](Oc2nc3c(F)c(-c4ccc(-c5ccc(-c6nccc(O)n6)cc5)cc4)c(F)cc3[nH]2)C[C@@H]1O [Example 35]
370

Quickly give me recorded Emax for OC[C@H]1OC[C@H](Oc2nc3cc(-c4ccc(-c5ccc(-c6nccc(O)n6)cc5)cc4)c(Cl)cc3[nH]2)C[C@@H]1O [Example 6]
373

Quickly give me recorded Emax for O=S(=O)(c1ccc(-c2ccc(-c3c(F)cc4[nH]c(O[C@H]5CO[C@H](CO)[C@@H](O)C5)nc4c3F)cc2)cc1)C1CCNCC1 [Example 42]
401

Quickly give me recorded Emax for N=c1nc(N)[nH]n1-c1ccc(-c2ccc(-c3c(F)cc4[nH]c(O[C@H]5CO[C@H](CO)[C@@H](O)C5)nc4c3F)cc2)cc1 [Example 40]
387

Quickly give me recorded Emax for OC[C@H]1OC[C@H](Oc2nc3cc(-c4ccc(-c5ccc(C6CNCCO6)cc5)cc4)c(Cl)cc3[nH]2)C[C@@H]1O (stereo partly shown) [Example 8]
348

Quickly give me recorded Emax for O=S(=O)(c1ccc(-c2ccc(-c3cc4nc(O[C@H]5CO[C@H](CO)[C@@H](O)C5)[nH]c4cc3Cl)cc2)cc1)C1CCNCC1 [Example 18]
364

Quickly give me recorded Emax for N=c1nc(N)[nH]n1-c1ccc(-c2ccc(-c3cc4nc(O[C@H]5CO[C@H](CO)[C@@H](O)C5)[nH]c4cc3Cl)cc2)cc1 [Example 16]
373
